assay.details: small-molecule microarray binders of probe aEGFR, primary screen, biochemical, biotinylated probe, 635/667 nm fluorescence (AID 1097);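 also: probe is a biotinylated anti-EGFR antibody binding compounds printed on slides; score combines fluorescence near 667 nm and signal to noise of each spot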
test.settings: higher = more signal
Parameter: composite z-score. Scope: all listed entries.
Answer using only a numeral; do not append any unit.

Lab note: CCCc1cccc(=O)o1 gave composite z-score of 0.0276

composite z-score reading for CCOC(=O)C1=CC[C@@H](c2ccc([N+](=O)[O-])cc2)N(S(=O)(=O)c2ccc(C)cc2)[C@H]1c1ccccc1 : 0.202

Reported composite z-score of CO[C@H]1O[C@H](CO)[C@@H](OC(=O)c2ccc(Br)cc2)[C@@H]2OC(=O)[C@@H](Cc3ccc4ccccc4c3)C/C=C/C[C@H](Cc3ccc4ccccc4c3)C(=O)O[C@@H]12 : -0.112

// composite z-score value for CC(C)CN1C(=O)[C@@]2(c3ccc([N+](=O)[O-])cc3)CC(=O)N(CC34CC5CC(CC(C5)C3)C4)[C@@H]2c2ccc(CO)cc21 : -0.256

Sample C[C@H]1ON(c2ccc(C(=O)OC(C)(C)C)cc2)[C@@H](c2ccc(O)cc2)[C@@H]1C(=O)N1C(=O)OC[C@@H]1c1ccccc1 ; composite z-score observed: -0.0315

###

composite z-score values by entry
Tested on: Human papillomavirus type 1a protein E7 (residues 44-93)
assay.details: HPV1a E7 fragment binders on microarrays, primary screen, biochemical, small-molecule microarray, residues 44-93, 635 nm fluorescence (AID 1108);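 also: E7 fragment applied at 1 µg/mL in TBST for 1 h at 4 C; score combines spot fluorescence with its signal to noise ratio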
test.settings: small-molecule microarray binding, fluorescence 635 nm; higher = more signal
Enter a number only.

Known results for molecules:
INSERT INTO assay_data (molecule, endpoint_name, quantitative_readout) VALUES
  ('COCCOC(=O)N1C(=O)[C@@]2(c3cc(C#CCC(C(=O)OC)C(=O)OC)ccc31)[C@H](c1ccc(OCCO)cc1)N1[C@H](c3ccccc3)[C@H](c3ccccc3)OC(=O)[C@H]1[C@@H]2C(=O)N1CCN(c2ncccn2)CC1', 'composite z-score', 1.17),
  ('CCCCC(CC)C(O)C1C=CC2C(=O)N(c3ccccc3)C(=O)C2N1Nc1ccc([N+](=O)[O-])cc1 (configuration not stated)', 'composite z-score', 1.37),
  ('COc1cc(CO)cc(I)c1O[C@H]1C=C(C(=O)NCCO)C[C@@H](N(Cc2ccc(F)cc2)C(=O)C2CCCO2)[C@@H]1O (some centres not stated)', 'composite z-score', -0.284),
  ('C=CCN1C(=O)[C@@]2(CCC(=O)OC(C)(C)C)N=C(c3ccc(OCCCO)cc3)O[C@H]2c2ccccc21', 'composite z-score', 1.36),
  ('CC(=O)NCCCC[C@@H]1NC(=O)[C@@H]2C[C@H](C(=O)O)[C@H](c3ccc(O)cc3)N2C1=O', 'composite z-score', -0.745),
  ('C=C(/C(=C/C[C@@H](OC(=O)c1ccncc1)c1ccc(OCCO)cc1)c1cc(C(=O)OC)ccc1OC)C(C)C', 'composite z-score', 1.38);

// switching to the query molecule
Per the record, COc1ccccc1CN1C(=O)c2ccccc2[C@](Cc2ccccc2I)(C(=O)NC(C)C)[C@@H]1c1ccc(CO)cc1 has composite z-score of 1.46

###

assay.details: small-molecule microarray binders of probe aDKK1, primary screen, biochemical, biotinylated probe, 635/667 nm fluorescence (AID 1099);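 also: score merges 667nm spot fluorescence with signal to noise across triplicate slides; reference of the scale not given here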
test.settings: higher = more signal
endpoint.name: composite z-score
Please state the value as a number alone, without comment.

INSERT INTO results (molecule, quantitative_readout) VALUES
  ('C=CCOC(=O)[C@H]1[C@@H]2C(=O)O[C@@H](c3ccccc3)[C@@H](c3ccccc3)N2[C@@H](c2ccc(OCCOC(=O)[C@H]3C[C@H]4C(=O)N[C@@H](Cc5ccccc5)C(=O)N4[C@H]3c3cccc(OCCO)c3)cc2)[C@]12C(=O)Nc1ccc(I)cc12', -0.298);

# composite z-score of C=CCOC(=O)[C@@H]1[C@H]2C(=O)O[C@H](c3ccccc3)[C@H](c3ccccc3)N2[C@H](c2ccc(OCCOC(=O)[C@H]3C[C@H]4C(=O)N[C@@H](CC(C)C)C(=O)N4[C@H]3c3ccc(O)cc3)cc2)[C@@]12C(=O)Nc1ccc(I)cc12 = 0.198

Lab note: CC(C)N1CC=CC23O[C@@H]4C=CCCOC(=O)C4[C@H]2C(=O)N(CCO)[C@@H]3C1=O (some centres not stated) gave composite z-score of -0.377

Lab note: measured composite z-score of C=CCNC(=O)[C@@H]1[C@H]2C(=O)O[C@H](c3ccccc3)[C@H](c3ccccc3)N2[C@H](c2ccc(OCCO)cc2)[C@@]12C(=O)N(C(=O)OCCOC)c1ccc(C#CC3=CCCCC3)cc12 was 0.331

composite z-score for Cc1ccc(S[C@]2(C(=O)NC3CC3)CC(=O)N(Cc3ccccc3Cl)[C@@H]2c2ccc(CO)cc2I)cc1 is 0.633

Notebook: CCCCC(=C=CC[C@@H](O)c1ccc(OCCO)cc1)C[C@@H](O)COCc1ccccc1 , composite z-score read as -0.338

###

assay.details: MM1S myeloma cell viability, profiling panel, resazurin fluorescence, basal, 24 h, PK04 Diversity Set (AID 1174);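 also: MM1S multiple myeloma cell line; test concentration not given here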
test.settings: higher = more signal, called active from +8 up or from −8 down
Each record's class is read off its z-score using these ranges: L = under -0.9, M = from -0.9 up to -0.1, H = -0.1 and over

INSERT INTO measurements (molecule, discrete_label) VALUES
  ('O=C1NC(=O)C2C1C=CC(C(O)c1c(F)cccc1Cl)N2Nc1ccccn1 (centres undefined)', 'L'),
  ('[N-]=[N+]=NCc1ccccc1[C@H]1OC(c2ccc(OCCCO)cc2)=N[C@@]1(CCS(=O)(=O)c1ccccc1)C(N)=O', 'H'),
  ('O=C1O[C@@H](c2ccccc2)[C@@H](c2ccccc2)N2[C@@H](c3ccccc3OCCO)[C@]3(C(=O)Nc4ccc(C#CCCO)cc43)[C@@H](C(=O)Nc3nc4ccccc4s3)[C@H]12', 'H'),
  ('CC(C)NC(=O)[C@@]1(C)c2ccccc2C(=O)N(C(C)C)[C@H]1c1ccc(CO)cc1', 'M'),
  ('NC(=O)NCC#Cc1ccc2c(c1)[C@]1(C(=O)N2)[C@H](C(=O)Nc2nc3ccccc3s2)[C@H]2C(=O)O[C@H](c3ccccc3)[C@H](c3ccccc3)N2[C@@H]1c1ccc(O)cc1', 'H');

Qu. Textbook exercise: identify the category of the molecule given here, CC(C)C[C@@H]1NC(=O)[C@H]2C[C@@H](C(=O)NCCCCCC[N+](C)(C)C)[C@@H](c3cccc(OCCO)c3)N2C1=O , according to its measured value.
Ans. H

Qu. // bin(item) where item = C[C@]12C(=O)N(CCCCCCO)[C@@H]3C(=O)N(c4ccc(Cl)cc4)CC=CC31O[C@@H]1/C=C\CCCOC(=O)C12 (some centres undefined)
Ans. H

Qu. Please indicate the class for Cc1ccc(F)cc1S(=O)(=O)N[C@@H]1CCN(Cc2ccc(Oc3ccccc3)cc2)C1 based on its z-score.
Ans. M

Qu. Class for COCCOC(=O)N1C(=O)[C@@]2(c3cc(C#CC4(O)CCCCCC4)ccc31)[C@H](c1ccccc1OCCO)N1[C@H](c3ccccc3)[C@H](c3ccccc3)OC(=O)[C@H]1[C@@H]2C(N)=O ?
Ans. L

Qu. Band of Cc1ccc(S[C@]2(C(=O)NCc3ccccc3)CC(=O)N(C(C)C)[C@@H]2c2ccc(CO)cc2I)cc1 ?
Ans. L

Qu. Please report the category associated with COC1(C)CN(Cc2ccccc2Br)[C@H](/C=C/c2ccccc2)[C@H](Cc2ccccc2)O1 (some centres undefined) , nothing else.
Ans. H

Qu. Using the reported z-score, which band applies to C=CC[C@@H](OC(=O)Nc1ccc(OC)cc1)c1ccc(OCCO)cc1 ?
Ans. M

Qu. Which band does CCOC(=O)C[C@H]1[C@H](OC(=O)c2ccc(-c3ccccc3)cc2)[C@@H](NC(=O)c2ccc3ccccc3n2)c2cc(OCCCO)ccc2N1C(=O)c1ccccc1 fall in?
Ans. M

Qu. Place this molecule in its band: C[C@]1(C(=O)O)c2ccccc2C(=O)N(Cc2ccccc2)[C@H]1c1ccc(CO)cc1
Ans. H

###

assay.details: small-molecule binders of probe aNOTCH3, primary screen, biochemical, small-molecule microarray, 635/667 nm fluorescence (AID 1120);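 also: probe is a biotin-tagged antibody raised against NOTCH3 rather than NOTCH3 protein; score merges spot fluorescence near 667 nm with spot signal to noise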
test.settings: higher = more signal
endpoint.name: composite z-score
In your answer, state the number alone without any accompanying words.

INSERT INTO results (molecule, quantitative_readout) VALUES
  ('Cc1ccc(F)cc1S(=O)(=O)N[C@@H]1CCN(Cc2ccc(OC(C)C)cc2)C1', -0.201),
  ('COc1ccc(CCNC(=O)[C@@]2(Sc3ccc(C)cc3)CC(=O)N(Cc3cc(C(F)(F)F)cc(C(F)(F)F)c3)[C@@H]2c2ccc(CO)cc2I)cc1', -0.193),
  ('COc1cc2c(cc1OC)CN(C(=O)[C@H]1[C@@H]3C(=O)O[C@@H](c4ccccc4)[C@@H](c4ccccc4)N3[C@@H](c3ccc(OCCO)cc3)[C@]13C(=O)Nc1ccc(C#CC4(O)CCCCCC4)cc13)CC2', -0.337),
  ('CCCC=C(CCC)[C@@H](NP(=O)(c1ccccc1)c1ccccc1)c1ccc(C(F)(F)F)cc1', 0.26);

Sure, the documented composite z-score for CC=CC(O)C1C=CC2C(=O)N(C)C(=O)C2N1Nc1ccc([N+](=O)[O-])cc1[N+](=O)[O-] (configuration not stated) is -0.0932

Lab book: composite z-score of C[C@]1(C(=O)NCCN2CCOCC2)c2ccccc2C(=O)N(Cc2ccc(OC(F)(F)F)cc2)[C@H]1c1ccc(CO)cc1 noted as -0.154

Sure, the documented composite z-score for C=C[C@H](COC(C)=O)NS(=O)(=O)c1ccc(Br)cc1 is -0.217
